Tested on: SK-MEL-28
PROCEDURE_TEXT: NCI tumour cell line growth inhibition, 48 h
Active and inactive are the calls of the source. Rule as the data show it: active = GI50 up to about 1.1 µM and inactive = higher.
Listed here are compounds together with their documented GI50.

Below: 5 compounds and their reported GI50.
[
  {
    "COMPOUND": "NC(CC(O)(c1ccccc1)c1ccccc1)c1ccccc1S (stereo not given)",
    "GI50": "17.5 µM (inactive)"
  },
  {
    "COMPOUND": "COc1ccccc1C(=O)N(Cc1ccccc1)c1ccc(Cl)c(C(=O)OC(C)C)c1",
    "GI50": "41.7 µM (inactive)"
  },
  {
    "COMPOUND": "CN1c2ccc(O)c(O)c2-c2cc(O)cc3c2C1CCC3 (stereo not given)",
    "GI50": "20.8 µM (inactive)"
  },
  {
    "COMPOUND": "NC(=O)C12C3C4C1C1C2C3C41C(N)=O (stereo not given)",
    "GI50": "> 100 µM (inactive)"
  },
  {
    "COMPOUND": "CCCC(=O)N[C@@H](Cc1cc(I)c(O)c(I)c1)C(=O)NCCCNCCCCNCCCNC(=O)[C@@H](N)CCCN=C(N)N",
    "GI50": "50.4 µM (inactive)"
  }
]

// next entry
Exercise: Requested field: GI50. Item: COc1cc(-c2cc(=O)c3c(OC)c(OC)c(OC)c(OC)c3o2)c(OC)c(OC)c1OC
Key: 42.5 µM (inactive)
